Hi there, I'd appreciate the recorded folding stability dG for every entry that follows.
B1: HEEH_KT_rd6_3632 (parent)
chain: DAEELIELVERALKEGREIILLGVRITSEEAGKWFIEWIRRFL

Variants of: B1
Assay: folding stability dG (cDNA display proteolysis); higher = more stable
Settings: PBS, room temperature
Please respond with the number in kcal/mol and leave the unit unwritten.

Entry under review: "L21Q" . Reported folding stability dG?
2.93

Requested field: folding stability dG. Item: "L43M"
3.81

Would you kindly share the measured folding stability dG for "E30W" ?
4.01

What does the data say about its folding stability dG? Entry: "A12E"
3.09

Entry "I6Q" : reported folding stability dG = ?
3.16

Reported folding stability dG for "E37D" : what is it?
3.57

Which measured folding stability dG value corresponds to "L13V" ?
3.54

What measured folding stability dG goes with "R17K" ?
3.59

I'd like to know its folding stability dG. The variant in question is "E10S"
3.62

Sample "S28E" — what was its folding stability dG?
3.23

Need folding stability dG of "R40H" , thanks.
3.32

Fill in the blank: the reported folding stability dG of "S28D" is ____.
3.63

I would be grateful if you could share the reported folding stability dG for "G16H" .
3.58

# query: folding stability dG of entry "K14A"
3.73

Requested read-out: folding stability dG. Entry: "E37K"
3.66

Bench note: what folding stability dG did "E7C" show?
4.46

Recorded folding stability dG for "I36N" , please?
2.93

I would be grateful if you could share the reported folding stability dG for "E15W" .
3.95

Query (variant): "V24P" ; field requested: folding stability dG
3.03

Which measured folding stability dG value corresponds to "L8T" ?
3.28

So what does the record say about folding stability dG for "I6A" ?
3.38

Recorded folding stability dG for "E7R" , please?
4.18

Need folding stability dG of "R25V" , thanks.
3.64

Query: folding stability dG; subject: "W38Y"
3.37

What folding stability dG value was documented for this variant, "E30L" ?
3.91

# lookup: folding stability dG of "E4H"
4.09

Data request, read-out folding stability dG, for "G23E"
3.41

For the variant shown here, "E4V" , give the reported folding stability dG.
3.91

Using the record for "S28T" , report its folding stability dG.
3.71

What folding stability dG value was documented for this variant, "R40N" ?
3.14

Which folding stability dG value is on record for "A2W" ?
4.53

Consider the variant shown here: "L22W" What is its recorded folding stability dG?
4.08

Request the reported folding stability dG associated with "R40E"
2.85

Which value of folding stability dG has been reported for "L22I" in the records?
3.56

Field request: folding stability dG | item: "E10L"
4.16

Data provenance is the MegaScale stability set (Tsuboyama et al. 2023).
